Assay: Human HepG2 cell viability assay in 384 well format
Format: toxicity, cell-based
Parameters: dose 125 nL, time 70.5 hour; concentration not given beside the values
Settings: HepG2 cells, read-out: Inhibition
As shown below, each of these compounds has a reported cytotoxicity at 70.5 h value.

- compound: "CCc1nnc(CN(CC)C(=O)C(C)n2ccnc2C(C)C)o1 (centres undefined)"
  cytotoxicity at 70.5 h (%): -5.37
- compound: "COC1CCCN(C(=O)NCC(F)F)C1 (centres undefined)"
  cytotoxicity at 70.5 h (%): -5.69
- compound: "CC(C)c1nc2n(n1)CC(NCc1nnnn1C1CC1)CC2 (centres undefined)"
  cytotoxicity at 70.5 h (%): -5.21
- compound: "O=C(Cc1ccccc1Cl)NCC1CCN(Cc2ccsc2)CC1"
  cytotoxicity at 70.5 h (%): -5.31
- compound: "Cc1ccc(N2C[C@H]3CCC[C@@H](CN4CCOCC4)[C@H]3C2)nn1"
  cytotoxicity at 70.5 h (%): -1.56
- compound: "COCCN1CCN(Cc2cnc(C)nc2)CC1"
  cytotoxicity at 70.5 h (%): -6.04
- compound: "CC(=O)N1Cc2nccn2CC(CNC(=O)c2ccnnc2)C1 (centres undefined)"
  cytotoxicity at 70.5 h (%): 9.01
- compound: "Cc1cc(C(=O)N2CCCC3(CNC(=O)O3)C2)c2c(C)nn(C)c2n1 (centres undefined)"
  cytotoxicity at 70.5 h (%): -5.33
- compound: "COC1CCCN(C(=O)c2sc(CC(C)C)nc2C)C1 (centres undefined)"
  cytotoxicity at 70.5 h (%): -6.5
- compound: "Cc1cc2n(n1)CC(CNCc1ccc(OCC3CC3)nc1)CN2 (centres undefined)"
  cytotoxicity at 70.5 h (%): 7.09
- compound: "CCOCCn1nc(C)cc1C(=O)N1CC[C@](C)(O)C(C)(C)C1"
  cytotoxicity at 70.5 h (%): 2.52
- compound: "CCNc1cc2c(nn1)CCN(C(=O)CCc1c(C)noc1Cl)C2"
  cytotoxicity at 70.5 h (%): -4.23
- compound: "Clc1ccccc1-c1nnc(CSCCN2CCOCC2)o1"
  cytotoxicity at 70.5 h (%): -2.19
- compound: "COCCC1(C(=O)O)CCCN(C(=O)c2cc(Cl)ccc2F)C1 (centres undefined)"
  cytotoxicity at 70.5 h (%): -5.3
- compound: "O=C(COC1CCCC1)N1CCCC1c1noc(C2CC2)n1 (centres undefined)"
  cytotoxicity at 70.5 h (%): -9.93
- compound: "O=C(c1cc(C2CCCCN2CCO)n[nH]1)N1CCOCC1 (centres undefined)"
  cytotoxicity at 70.5 h (%): -9.24
- compound: "Cc1cc(N2CCC3(CCC(=O)N(CC4CC4)C3)CC2)ncn1"
  cytotoxicity at 70.5 h (%): -7.85
- compound: "CCc1nnc(CN2CCN(C(=O)c3cc4ccccc4[nH]3)CC2)o1"
  cytotoxicity at 70.5 h (%): -3.19
- compound: "CSc1ccc(C)c(C(=O)N2CCCC(n3cncn3)C2)c1 (centres undefined)"
  cytotoxicity at 70.5 h (%): -2.61
- compound: "O=C(C1CCOCC1)N1CCC2(CC1)CC(Oc1ccccc1)CO2 (centres undefined)"
  cytotoxicity at 70.5 h (%): 3.04
- compound: "O=C(NCC(O)c1ccc(F)cc1F)c1ccccc1F (centres undefined)"
  cytotoxicity at 70.5 h (%): -12.6
- compound: "O=C(Nc1ccccn1)c1cncc(C2CCNCC2)n1"
  cytotoxicity at 70.5 h (%): -6.06
- compound: "Cc1nn(CCC(=O)N2CCN(Cc3cnn(C)c3C)CC2)c(C)c1Br"
  cytotoxicity at 70.5 h (%): 1.42
- compound: "CCS(=O)(=O)Nc1cnn(Cc2cccc(Cl)c2)c1"
  cytotoxicity at 70.5 h (%): -10.7
